# maps each entry to its solubility thermodynamic
Assay: Lyophilisation solubility assay (LYSA)
Type: physicochemical
Conditions: aqueous buffer, thermodynamic from solid; 0.05 M phosphate buffer, pH 6.5; <1.0 = detection limit
A number alone suffices; assume µg/mL.

Task: Fill in the blank: the reported solubility thermodynamic of `CNc1cc(F)cc2c1[nH]c1ncc(-c3ccc4ccc(C(=O)O)c(=O)n4c3)c(N3CCO[C@@H](CN(C)C)C3)c12` is ____.
Output: 54

Task: CNc1cc(F)c(F)c2c1[nH]c1ncc(-c3ccc4ccc(C(=O)O)c(=O)n4c3)c(N3CCC4CN(C)C[C@@H]43)c12 (stereo in doubt) ?
Output: 134

Task: CNc1cc(F)cc2c1[nH]c1ncc(-c3ccc4ccc(C(=O)O)c(=O)n4c3)c(N3C[C@H]4CCN(C)[C@H]4C3)c12 (single isomer, unassigned) [Example 3.01A] ?
Output: 9

***
Task: Fill in the blank: the reported solubility thermodynamic of CNc1cc(F)cc2c1[nH]c1ncc(-c3ccc4ccc(C(=O)O)c(=O)n4c3)c(N3C[C@@H]4CCN(C)[C@@H]4C3)c12 (single isomer, unassigned) [Example 3.01B] is ____.
Output: 16

Task: CNc1cc(F)c(F)c2c1[nH]c1ncc(-c3cc(C)c4ccc(C(=O)O)c(=O)n4c3)c(N3CC[C@H]4CN(C)C[C@H]43)c12 (relative stereo) ?
Output: 41

Task: CNc1cc(F)c(C#N)c2c1[nH]c1ncc(-c3ccc4ccc(C(=O)O)c(=O)n4c3)c(N3CC[C@H]4CCN(C)C4C3)c12 (stereo in doubt) ?
Output: 12

----------
Test system: multiple species and strains
Assay: microbe, parasite or virus in culture
Design: unit not given beside the values
Conditions: E. coli ATCC 35218
Returns: string. Value is 1 if measured MIC S9 is below 0.3, and 0 if it is greater than or equal to it.

Completed entries (count: 3):
Task: Consider CNc1cc(F)c(F)c2c1[nH]c1ncc(-c3ccc4c(C)cc(C(=O)O)c(=O)n4c3)c(N3CC[C@H]4CN(C)C[C@H]43)c12 (relative stereo) . Does its MIC S9 lie strictly below 0.3?
Output: 0

Task: `CNc1cc(F)c(F)c2c1[nH]c1ncc(-c3cc(C)c4ccc(C(=O)O)c(=O)n4c3)c(N(C)C)c12` ?
Output: 0

Task: `CNc1cc(F)c(Cl)c2c1[nH]c1ncc(-c3ccc4ccc(C(=O)O)c(=O)n4c3)c(N3CC[C@H]4CN(C)C[C@H]43)c12` ?
Output: 1

***
Task: Consider CNc1cc(F)c(F)c2c1[nH]c1ncc(-c3ccc4ccc(C(=O)O)c(=O)n4c3)c(N3CCC4CN(C)C[C@@H]43)c12 (stereo in doubt) . Does its MIC S9 lie strictly below 0.3?
Output: 0

Task: CNc1cc(F)c(F)c2c1[nH]c1ncc(-c3ccc4ccc(C(=O)O)c(=O)n4c3)c(N3CC[C@]4(C[C@H]4N)C3)c12 [Example 4.01C] ?
Output: 0

Task: CNc1cc(F)c(C#N)c2c1[nH]c1ncc(-c3ccc4ccc(C(=O)O)c(=O)n4c3)c(N3CC[C@H]4CCN(C)C4C3)c12 (stereo in doubt) ?
Output: 0

Task: CNc1cc(F)cc2c1[nH]c1nc(Oc3cnc(C)nc3)nc(N3C[C@H]4C[C@@H]3C[C@H]4N)c12 [GP-6, reference compound] ?
Output: 1

Task: `CNc1cc(F)c(F)c2c1[nH]c1ncc(-c3ccc4ccc(C(=O)O)c(=O)n4c3)c(N(C)C)c12` ?
Output: 1

Task: CNc1cc(F)c(C#N)c2c1[nH]c1ncc(-c3ccc4ccc(C(=O)O)c(=O)n4c3)c(N3C[C@H]4CCN(C)[C@H]4C3)c12 (single isomer, unassigned) [Example 1.16] ?
Output: 1

Task: CNc1cc(F)c(C#N)c2c1[nH]c1ncc(-c3ccc4ccc(C(=O)O)c(=O)n4c3)c(N3C[C@H]4CCN(C)[C@H]4C3)c12 (single isomer, unassigned) [Example 1.11] ?
Output: 1

Task: CNc1cc(F)c(F)c2c1[nH]c1ncc(-c3ccc4c(Cl)cc(C(=O)O)c(=O)n4c3)c(N3CC[C@H]4CN(C)C[C@H]43)c12 (relative stereo) ?
Output: 0

Task: CNc1cc(F)c(Cl)c2c1[nH]c1ncc(-c3ccc4ccc(C(=O)O)c(=O)n4c3)c(N3CC[C@@]4(C[C@H]4N)C3)c12 [Example 5.01C] ?
Output: 1
